- Target or test system: Histone deacetylase 1 (Homo sapiens)
- Sequence (Q13547 whole entry): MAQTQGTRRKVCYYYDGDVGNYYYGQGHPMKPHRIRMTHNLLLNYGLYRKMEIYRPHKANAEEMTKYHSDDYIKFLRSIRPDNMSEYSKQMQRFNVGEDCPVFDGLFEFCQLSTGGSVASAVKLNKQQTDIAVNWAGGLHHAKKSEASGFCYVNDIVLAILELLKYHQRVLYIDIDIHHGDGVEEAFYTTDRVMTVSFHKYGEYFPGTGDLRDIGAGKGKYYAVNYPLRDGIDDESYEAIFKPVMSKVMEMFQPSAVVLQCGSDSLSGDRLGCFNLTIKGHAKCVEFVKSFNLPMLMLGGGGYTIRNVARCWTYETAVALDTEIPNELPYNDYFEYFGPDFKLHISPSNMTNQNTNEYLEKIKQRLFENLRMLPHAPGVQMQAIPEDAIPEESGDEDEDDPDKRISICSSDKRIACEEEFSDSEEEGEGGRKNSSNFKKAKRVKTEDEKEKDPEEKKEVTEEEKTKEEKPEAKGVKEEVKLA
- Assay info: Inhibition of human recombinant HDAC1 expressed in baculovirus
Give measured pIC50 for each item. Keep answers brief.
Answers are plain numbers, as −log10 of the molar value.

• Cc1ccc(OCCN(Cc2ccc(C(=O)NO)cc2)c2ncc(-c3ccc(C)cc3)s2)cc1 = 5.98

Now let's try a different one.
So the reported pIC50 for Cc1ccc(-c2cnc(N(CCOc3ccccc3)Cc3ccc(C(=O)NO)cc3)s2)cc1 , on Histone deacetylase 1 (Homo sapiens), turned out to be 5.64
